# Test system: SR
# procedure-details: NCI tumour cell line growth inhibition, 48 h
The source made the active and inactive calls. Cut-off read from the data, not from the text of the source: active = GI50 up to about 1.1 µM and inactive = higher.
Answer each item with its documented GI50.

Query: GI50; subject: COC(=O)c1c(OC(C)=O)ccc2c1c1c(n2Cc2ccccc2)C(=O)c2ccccc2C1=O
Result: 24.9 µM (inactive)

Query: Another: Nc1c([N+](=O)[O-])nc(Cl)c2nncn12
Result: 19.9 µM (inactive)

Query: Then CCCCCCCCCCC(C(=O)O)C1(C(=O)O)CCC(=O)O1 (stereo not given) ?
Result: > 100 µM (inactive)

Query: Param item: CCCCCCCCCCC(C)CCCCCCC(=O)O (stereo not given)
Result: > 100 µM (inactive)

Query: Now this one: O=[N+]([O-])c1ccc(N2N=C(c3c(O)ccc4ccccc34)CC2c2ccc(Cl)cc2)c([N+](=O)[O-])c1 (stereo not given)
Result: 6.97 µM (inactive)

Query: Also check CC1CN=C(N(C(=O)Nc2ccccc2)c2ccc(Cl)c(Cl)c2)S1 (stereo not given)
Result: 24.4 µM (inactive)

Query: # iterate: CCOC(=O)C1=C(OC(OCC)C([Se]c2ccccc2)C(C)C)CCC1 (stereo not given)
Result: 3.2 µM (inactive)

Query: Can you handle C#CCN(CC#C)C(=O)C(=O)c1c[nH]c2ccc(OC)cc12 next?
Result: 11.1 µM (inactive)

Query: Next molecule: CCOC(CNc1nn2c(C)nnc2s1)OCC
Result: > 100 µM (inactive)

Query: Please answer likewise for O=C(NNC(=O)c1c(Cl)c(Cl)c(Cl)c(Cl)c1-c1nc2ccccc2[nH]1)c1ccc(Cl)cc1
Result: 33.8 µM (inactive)

====

# System: A549
# procedure-details: NCI tumour cell line growth inhibition, 48 h
Calls of active or inactive are those of the source. No stated cut-off is given here; in the data, active = GI50 up to about 1.1 µM and inactive = higher.
Provide the recorded GI50 for the entries that follow.

Query: Consider the compound shown here: CC(=O)OCC1OC(Sc2nc(-c3ccc(C)cc3)c(C#N)c(=O)n2C2OC(COC(C)=O)C(OC(C)=O)C(OC(C)=O)C2OC(C)=O)C(OC(C)=O)C(OC(C)=O)C1OC(C)=O (stereo unspecified) What is its recorded GI50?
Result: > 100 µM (inactive)

Query: What about this compound? CC(CN1NC12CCCC2)N1NC12CCCC2 (stereo unspecified)
Result: > 100 µM (inactive)

Query: Same question, O=NN(CCCl)C(=O)NC1CCSc2ccccc21 (stereo unspecified) this time
Result: > 100 µM (inactive)

Query: Another compound: Cc1ccc(NC(=O)CCC(=O)C2Cc3ccccc3C2=O)cc1C (stereo unspecified)
Result: > 100 µM (inactive)

Query: How about this compound: N=c1c2sc3nc4ccccc4n3c2ncn1Cc1ccccc1
Result: > 100 µM (inactive)

Query: What would you report for Clc1ccc(NCc2nnc(COc3ccc(OCc4nnc(CNc5ccc(Cl)cc5)o4)c(Cl)c3)o2)cc1 ?
Result: 49 µM (inactive)

====

# Tested on: BT-549
# procedure-details: NCI tumour cell line growth inhibition, 48 h
Calls of active or inactive are those of the source. No stated cut-off is given here; in the data, active = GI50 up to about 1.1 µM and inactive = higher.
readout: GI50

Query: Field request: GI50 | item: CC(=O)N(C(C)=O)c1ncc(-n2nc(-c3ccccc3)cc2-c2ccccc2)c(-c2ccccc2)n1
Result: > 10 µM (inactive)

Query: Continue with Nc1nc2cc(CNc3ccc(C(=O)O)cc3)ccc2nc1-c1ccccc1
Result: > 100 µM (inactive)

Query: Would you mind doing CCOC(=O)C(NC(=O)Nc1ccc(Cl)cc1)(OC)C(F)(F)F (configuration not stated) as well?
Result: > 100 µM (inactive)

Query: Check COc1ccc(C)cc1NC(=S)N/N=C/c1ccco1 too.
Result: 53.8 µM (inactive)

Query: Continue with COC(=O)C1CCC(=S)N1C(=O)c1ccccc1 (configuration not stated)
Result: > 100 µM (inactive)

Query: Can you check Cc1c(NC(=O)CSC(=S)N(C)C)c(=O)n(-c2ccccc2)n1C next?
Result: > 100 µM (inactive)

Query: What do you have for O=c1n(/N=C/c2ccccc2)c(=O)n2n1C1C=CC2CC1 ?
Result: > 100 µM (inactive)

Query: Record: O=c1c(Cl)c(Cl)cnn1CCCl
Result: 3.47 µM (inactive)

Query: Can you handle CCNC12CCC(C1)C(C)(C)C2=O (configuration not stated) next?
Result: > 100 µM (inactive)

Query: Also check c1cncc(CNc2ncn[nH]2)c1
Result: > 100 µM (inactive)

Query: Further, for CCN(CC)C1=Nc2ccccc2-n2ccnc2C1 ?
Result: > 100 µM (inactive)

Query: Next: N#Cc1c(O)c(/N=N/c2ccccc2F)c(=O)n2c1[nH]c1ccccc12
Result: 60 µM (inactive)

====

Below are GI50 values measured for HCT-15.

Query: // map CCCCCC1CC(C(C)=O)CN1c1ccc(F)cc1 (stereo unspecified) to recorded GI50 (system: HCT-15)
Result: 52.8 µM

Query: Next record, please: Nc1c([N+](=O)[O-])nc(Cl)c2nncn12
Result: 19.3 µM

Query: Repeat with O=[N+]([O-])c1ccc(N2N=C(c3c(O)ccc4ccccc34)CC2c2ccc(Cl)cc2)c([N+](=O)[O-])c1 (stereo unspecified)
Result: 14 µM

Query: Likewise for COc1ccc2c(c1)/C(=C/CCN(C)C)c1ccccc1S2 ?
Result: > 100 µM

Query: // query: O=C1OC(=O)c2c1c(-c1ccccc1)nc1ccccc21
Result: > 100 µM

Query: What about this compound? COC(=O)[C@H]1CO[C@H]2C/C(C)=C/CC/C(C)=C/CC[C@@]3(C)O[C@@H]3C[C@H]21
Result: 9.12 µM

====

What GI50 was measured for each of the following?
# System: PC-3
# procedure-details: NCI tumour cell line growth inhibition, 48 h
Active and inactive are the calls of the source. No stated cut-off is given here; in the data, active = GI50 up to about 1.1 µM and inactive = higher.

Query: Sample CC1(C)CCC2(C(=O)O)C(O)CC3(C)C(=CCC4C5(C)CCC(OC6OCC(O)C(O)C6OC6OCC(O)C(O)C6OC6OCC(O)C(OC7OC(CO)C(O)C(O)C7O)C6O)C(C)(C)C5CCC43C)C2C1 (stereo unspecified) — what was its GI50?
Result: 44.6 µM (inactive)

Query: Likewise for CN(C)S(=O)(=O)c1ccc2c(c1)/C(=C1/Nc3ccccc3C1=O)C(=O)N2 ?
Result: 23 µM (inactive)

Query: Could you do the same for CCOC(=O)c1cc(C2CCN(CC(C)CC)C2=S)c(-c2cc(C)no2)[nH]1 (stereo unspecified) , please?
Result: 41.6 µM (inactive)

Query: Try this compound next: CCOC(=O)C(Cc1cc(OC)c(CC(C(=O)OCC)C(=O)OCC)cc1OC)C(=O)OCC
Result: > 100 µM (inactive)

Query: Cc1csc2nc(-c3ccc([N+](=O)[O-])cc3)c(/C=N/N=C(N)N)n12 ?
Result: 1.69 µM (inactive)

Query: Moving on to the next compound: c1ccc(C[n+]2ccc3c(c2)CCCC3)cc1
Result: 78 µM (inactive)

Query: Another compound: Cn1c(=O)c2c(nc3n(Cc4ccccc4)c(=O)c(Br)cn23)n(C)c1=O
Result: > 100 µM (inactive)

Query: Same question for COc1ccc2cc(/C=N/NC(=O)Nc3ccccc3)ccc2c1 please.
Result: > 100 µM (inactive)

Query: And then CCCCCCCCC[n+]1cccc(C2C(C(=O)OCC)=C(C)NC(C)=C2C(=O)OCC)c1 , what is it?
Result: 4.27 µM (inactive)

Query: CN(C(=O)Cc1ccccc1)n1cnn(CC(=O)OC(C)(C)C)c1=S ?
Result: > 10 µM (inactive)

Query: Param item: COc1ccc(-n2cnn3c(=O)c4cn[nH]c4nc23)cc1
Result: > 10 µM (inactive)

Query: Please answer likewise for CC(C)=Cc1cc(CCC/C(C)=C/Cc2c(O)cc(C)c(C(=O)O)c2O)co1
Result: > 100 µM (inactive)

Query: And the next one, CC(=O)n1nc(-c2ccccc2)n(/N=C/c2ccc([N+](=O)[O-])o2)c1=O ?
Result: 13.7 µM (inactive)

Query: Do the same for O=C1CCCCCCCCCCC1CN1CCCC1 (stereo unspecified) please
Result: 30.8 µM (inactive)

Query: Same again, this time with Cc1nc(N)c(N2CCN(S(N)(=O)=O)CC2)c(O)n1
Result: > 100 µM (inactive)

Query: Next: CO[C@@H]1[C@@H](OC2OC(C)C(OC3CC(C)(O)C(OC(=O)CC(C)C)C(C)O3)C(N(C)C)C2O)[C@@H](CC=O)C[C@@H](C)C(=O)/C=C/C2O[C@H]2C[C@@H](C)OC(=O)C[C@H]1OC(C)=O (stereo partly specified)
Result: 15.5 µM (inactive)

====

Could you please report measured GI50 for the items listed next?
# Test system: OVCAR-5
# procedure-details: NCI tumour cell line growth inhibition, 48 h
Active and inactive are the calls of the source. Rule as the data show it: active = GI50 up to about 1.1 µM and inactive = higher.

Query: Please report the recorded GI50 for Cc1ccccc1NC(=O)Cc1csc2[n+]1C(=O)/C(=C/c1ccc([N+](=O)[O-])cc1)S2 .
Result: 37.8 µM (inactive)

Query: Also COC(=O)/C=C(\C(=O)OC)c1cc(C)c2cc(C(C)C)ccc(C)c1-2 , if possible.
Result: > 100 µM (inactive)

Query: Same lookup for Cc1cc(S(=O)(=O)N/C(=N/N)NCCc2ccccc2)c(S)cc1Cl , please.
Result: 19.5 µM (inactive)

Query: Moving on to the next molecule: CC(O)CNC1=CC(=O)C(=O)c2ccccc21 (centres undefined)
Result: 19.5 µM (inactive)

Query: Similarly, CC(C)(CN1C(=O)C(Cl)=C(Cl)C1=O)CN1C(=O)C(Cl)=C(Cl)C1=O ?
Result: 19.8 µM (inactive)

Query: Also check O=C(NCC1Nc2ccncc2S(=O)(=O)N1)c1ccc(Br)cc1 (centres undefined)
Result: > 100 µM (inactive)

Query: What about C[C@]12C(=O)C=CCC1=CC[C@@H]1[C@@H]2[C@H]2CC3(O)C(=O)O[C@@]4(C)[C@H]5C[C@@]6(C)[C@@H]7[C@@]2(O)[C@]1(OC[C@H]6C(=O)O5)O[C@]734 (some centres undefined) ?
Result: 29 µM (inactive)

Query: Next molecule up: CS(=O)(=O)OCC1=C(COS(C)(=O)=O)C(=O)c2c(O)ccc(O)c2C1=O
Result: > 100 µM (inactive)

Query: Same question, O=C(O)C(O)C(O)C(O)C(O)CO.[Ba+2] (centres undefined) this time
Result: > 100 µM (inactive)
